Some molecules, each annotated with its measured pKi.
# MEASUREMENT_TARGET: Neuronal acetylcholine receptor subunit alpha-7 (Rattus norvegicus)
# ASSAY_COMMENT: Displacement of [125I]BTX from rat alpha7 nicotinic acetylcholine receptor expressed in GH4C1 cells
pKi: −log10 of the molar value.

| STRUCTURE_AS_SMILES | pKi |
| --- | --- |
| COc1ccc2oc(N3CCN4CCC3CC4)nc2n1 | 7.60 |
| Clc1cnc2oc(N3CCN4CCC3CC4)nc2c1 | 8.59 |
| c1cnc2oc(N3CCN4CCC3CC4)nc2c1 | 7.39 |
| CCc1ccc2oc(N3CCN4CCC3CC4)nc2n1 | 7.73 |
| Cc1ccc2oc(N3CCN4CCC3CC4)nc2n1 | 7.87 |
| Clc1ccc2oc(N3CCN4CCC3CC4)nc2c1 | 8.72 |
| c1cc(-c2cnc3nc(N4CCN5CCC4CC5)oc3c2)n[nH]1 | 7.64 |
| CCc1cnc2nc(N3CCN4CCC3CC4)oc2c1 | 7.65 |
| Cc1ccc2oc(N3CCN4CCC3CC4)nc2c1 | 7.47 |
| Brc1cnc2nc(N3CCN4CCC3CC4)oc2c1 | 8.68 |
| Cc1nc2nc(N3CCN4CCC3CC4)oc2cc1F | 7.82 |
| c1ccc(Oc2cnc3nc(N4CCN5CCC4CC5)oc3c2)cc1 | 8.38 |
| c1cc2oc(N3CCN4CCC3CC4)nc2cn1 | 6.51 |

----------
# MEASUREMENT_TARGET: Muscarinic acetylcholine receptor M5 (Homo sapiens)
# Sequence (P08912 whole entry): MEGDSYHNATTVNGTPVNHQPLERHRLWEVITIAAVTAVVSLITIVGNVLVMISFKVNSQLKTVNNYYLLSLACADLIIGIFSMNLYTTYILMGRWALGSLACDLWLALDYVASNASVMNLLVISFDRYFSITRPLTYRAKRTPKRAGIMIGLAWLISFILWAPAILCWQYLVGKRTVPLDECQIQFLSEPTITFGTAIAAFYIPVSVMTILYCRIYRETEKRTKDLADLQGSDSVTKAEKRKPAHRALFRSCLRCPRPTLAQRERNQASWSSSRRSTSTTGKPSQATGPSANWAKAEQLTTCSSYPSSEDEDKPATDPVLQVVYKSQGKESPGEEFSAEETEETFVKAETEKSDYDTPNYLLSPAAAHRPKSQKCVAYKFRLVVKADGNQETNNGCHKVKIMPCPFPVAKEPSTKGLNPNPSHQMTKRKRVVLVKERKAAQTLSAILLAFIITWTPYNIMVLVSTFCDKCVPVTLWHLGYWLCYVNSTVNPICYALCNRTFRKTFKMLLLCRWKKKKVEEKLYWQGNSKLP

| STRUCTURE_AS_SMILES | Ki, µM |
| --- | --- |
| Cc1ccc2oc(N3CCN4CCC3CC4)nc2n1 | 5.2 |

----------
# MEASUREMENT_TARGET: Muscarinic acetylcholine receptor M3 (Homo sapiens, UniProt P20309)
# Sequence (P20309 whole entry): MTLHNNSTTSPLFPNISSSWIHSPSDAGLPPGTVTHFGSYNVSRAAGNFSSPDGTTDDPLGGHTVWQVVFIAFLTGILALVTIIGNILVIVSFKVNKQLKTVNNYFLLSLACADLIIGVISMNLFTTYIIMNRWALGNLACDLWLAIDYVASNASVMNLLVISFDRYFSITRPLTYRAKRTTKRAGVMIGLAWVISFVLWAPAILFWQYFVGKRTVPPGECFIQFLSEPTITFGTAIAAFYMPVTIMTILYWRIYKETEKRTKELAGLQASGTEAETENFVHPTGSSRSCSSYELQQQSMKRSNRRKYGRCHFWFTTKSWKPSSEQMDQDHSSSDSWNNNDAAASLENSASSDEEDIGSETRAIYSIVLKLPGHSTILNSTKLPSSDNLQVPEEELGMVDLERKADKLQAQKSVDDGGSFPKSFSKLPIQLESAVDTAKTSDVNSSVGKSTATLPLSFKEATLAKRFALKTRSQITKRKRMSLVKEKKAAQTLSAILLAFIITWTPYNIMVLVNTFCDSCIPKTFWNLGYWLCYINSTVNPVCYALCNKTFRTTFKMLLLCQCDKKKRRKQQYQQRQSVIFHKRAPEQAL

| STRUCTURE_AS_SMILES | RESULT_UNIT | Ki |
| --- | --- | --- |
| Cc1ccc2oc(N3CCN4CCC3CC4)nc2n1 | µM | 8.3 |

----------
# ASSAY_COMMENT: Lipophilicity, log D at pH 7.4
# Type: physicochemical
# RECORDED_CONDITIONS: buffer

| STRUCTURE_AS_SMILES | logD |
| --- | --- |
| Cc1ccc2oc(N3CCN4CCC3CC4)nc2n1 | 0.36 |

----------
# MEASUREMENT_TARGET: 5-hydroxytryptamine receptor 3A (Mus musculus, UniProt P23979)
# Sequence (P23979 whole entry): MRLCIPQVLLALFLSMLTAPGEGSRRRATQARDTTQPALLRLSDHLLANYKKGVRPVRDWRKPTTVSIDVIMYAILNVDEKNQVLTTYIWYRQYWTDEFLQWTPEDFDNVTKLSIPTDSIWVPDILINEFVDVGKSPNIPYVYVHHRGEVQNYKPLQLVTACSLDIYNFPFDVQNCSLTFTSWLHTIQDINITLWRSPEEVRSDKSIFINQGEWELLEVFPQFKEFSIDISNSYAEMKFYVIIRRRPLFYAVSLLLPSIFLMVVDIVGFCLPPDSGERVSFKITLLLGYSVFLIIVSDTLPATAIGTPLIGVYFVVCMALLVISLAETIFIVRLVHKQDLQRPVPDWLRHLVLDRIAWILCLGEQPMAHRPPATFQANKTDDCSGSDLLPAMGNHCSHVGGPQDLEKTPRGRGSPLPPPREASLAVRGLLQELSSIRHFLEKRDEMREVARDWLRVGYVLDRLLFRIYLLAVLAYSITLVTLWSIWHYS

| STRUCTURE_AS_SMILES | MEASUREMENT_TARGET | Ki |
| --- | --- | --- |
| O=C(Oc1ccccc1)N1CCN2CCC1CC2 | 5-hydroxytryptamine receptor 3A (Mus musculus, UniProt P23979) | 3.99 µM |
| N#Cc1cnc2nc(N3CCN4CCC3CC4)oc2c1 | 5-hydroxytryptamine receptor 3A (Mus musculus, UniProt P23979) | > 5.29 µM |
| c1ccc(-c2ccc3oc(N4CCN5CCC4CC5)nc3n2)cc1 | 5-hydroxytryptamine receptor 3A (Mus musculus, UniProt P23979) | > 3.58 µM |
| c1ccc(Oc2ccc3oc(N4CCN5CCC4CC5)nc3n2)cc1 | 5-hydroxytryptamine receptor 3A (Mus musculus, UniProt P23979) | 6.83 µM |
| COc1ccc2oc(N3CCN4CCC3CC4)nc2n1 | 5-hydroxytryptamine receptor 3A (Mus musculus, UniProt P23979) | 0.141 µM |
| c1cc2oc(N3CCN4CCC3CC4)nc2nc1C1CCCC1 | 5-hydroxytryptamine receptor 3A (Mus musculus, UniProt P23979) | > 5.29 µM |
| Cc1cnc2nc(N3CCN4CCC3CC4)oc2c1 | 5-hydroxytryptamine receptor 3A (Mus musculus, UniProt P23979) | 3.39 µM |
| c1cc(-c2cnc3nc(N4CCN5CCC4CC5)oc3c2)n[nH]1 | 5-hydroxytryptamine receptor 3A (Mus musculus, UniProt P23979) | > 5.26 µM |
| c1cc2oc(N3CCN4CCC3CC4)nc2cn1 | 5-hydroxytryptamine receptor 3A (Mus musculus, UniProt P23979) | 2.12 µM |
| c1ncc(-c2cnc3nc(N4CCN5CCC4CC5)oc3c2)cn1 | 5-hydroxytryptamine receptor 3A (Mus musculus, UniProt P23979) | > 7.14 µM |
| c1cnc2oc(N3CCN4CCC3CC4)nc2c1 | 5-hydroxytryptamine receptor 3A (Mus musculus, UniProt P23979) | 0.092 µM |
| c1ccc(-c2cnc3nc(N4CCN5CCC4CC5)oc3c2)cc1 | 5-hydroxytryptamine receptor 3A (Mus musculus, UniProt P23979) | 2.12 µM |

----------
# MEASUREMENT_TARGET: Neuronal acetylcholine receptor subunit alpha-7 (Rattus norvegicus)
# ASSAY_COMMENT: Agonist activity at rat alpha7 nicotinic acetylcholine receptor expressed in Xenopus oocytes assessed as stimulation of channel currents at 32 uM at holding potential of -60/-90 mV by electrophysiology method relative to 50 uM nicotine
# Format: functional, cell-based
# RECORDED_CONDITIONS: Oocyte
QUANTITY_NAME: Activity (%)

| STRUCTURE_AS_SMILES | RECORDED_NUMBER |
| --- | --- |
| c1cc2nc(N3CCN4CCC3CC4)oc2cn1 | 186 |
| Fc1ccc2oc(N3CCN4CCC3CC4)nc2c1 | 315 |
| c1cc2oc(N3CCN4CCC3CC4)nc2cn1 | 156 |
| c1ccc2oc(N3CCN4CCC3CC4)nc2c1 | 183 |
| Clc1ccc2oc(N3CCN4CCC3CC4)nc2c1 | 122 |
| c1cnc2oc(N3CCN4CCC3CC4)nc2c1 | 182 |
| c1cnc2nc(N3CCN4CCC3CC4)oc2c1 | 220 |
| Cc1ccc2oc(N3CCN4CCC3CC4)nc2c1 | 287 |
| Brc1ccc2oc(N3CCN4CCC3CC4)nc2c1 | 78 |
| Cc1ccc2nc(N3CCN4CCC3CC4)oc2c1 | 197 |

----------
Some compounds, each annotated with its measured pKi.
# MEASUREMENT_TARGET: Neuronal acetylcholine receptor subunit alpha-7 (Rattus norvegicus, UniProt Q05941)
# Sequence (Q05941 whole entry): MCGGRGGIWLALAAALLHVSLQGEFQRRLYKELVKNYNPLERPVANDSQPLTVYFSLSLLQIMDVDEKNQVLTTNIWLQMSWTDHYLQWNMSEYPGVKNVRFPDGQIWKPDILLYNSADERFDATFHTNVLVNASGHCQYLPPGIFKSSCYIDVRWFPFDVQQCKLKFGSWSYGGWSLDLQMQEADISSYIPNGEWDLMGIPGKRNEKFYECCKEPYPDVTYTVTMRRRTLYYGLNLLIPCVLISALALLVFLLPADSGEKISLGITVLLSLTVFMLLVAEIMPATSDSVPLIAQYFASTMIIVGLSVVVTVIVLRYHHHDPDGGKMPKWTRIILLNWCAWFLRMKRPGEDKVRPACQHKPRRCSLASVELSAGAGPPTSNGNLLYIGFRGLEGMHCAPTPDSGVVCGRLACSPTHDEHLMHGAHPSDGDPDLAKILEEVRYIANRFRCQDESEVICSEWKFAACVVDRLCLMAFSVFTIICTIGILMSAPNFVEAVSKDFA
# ASSAY_COMMENT: Displacement of [125I]BTX from rat alpha7 nicotinic acetylcholine receptor expressed in GH4C1 cells
pKi: −log10 of the molar value.

| STRUCTURE_AS_SMILES | pKi |
| --- | --- |
| c1ccc2oc(N3CCN4CCC3CC4)nc2c1 | 7.65 |
| Clc1cnc2nc(N3CCN4CCC3CC4)oc2c1 | 9.00 |
| Fc1cnc2nc(N3CCN4CCC3CC4)oc2c1 | 7.76 |
| Cc1ccc2nc(N3CCN4CCC3CC4)oc2n1 | 7.05 |
| c1ccc(-c2ccc3oc(N4CCN5CCC4CC5)nc3n2)cc1 | 8.49 |
| CC(C)c1ccc2oc(N3CCN4CCC3CC4)nc2n1 | 8.04 |
| Cc1cnc2nc(N3CCN4CCC3CC4)oc2c1 | 8.18 |
| c1cncc(-c2cnc3nc(N4CCN5CCC4CC5)oc3c2)c1 | 6.92 |
| Fc1ccc2oc(N3CCN4CCC3CC4)nc2c1 | 7.68 |
| N#Cc1cnc2nc(N3CCN4CCC3CC4)oc2c1 | 8.21 |
| Cc1ccc2nc(N3CCN4CCC3CC4)oc2c1 | 7.75 |
| c1cnc2nc(N3CCN4CCC3CC4)oc2c1 | 7.52 |
| c1cc2nc(N3CCN4CCC3CC4)oc2cn1 | 6.51 |
